Reported ED50 values are given for each entry in this list.
# Test system: Mus musculus
# run_description: Hypnotic activity in ip dosed CFLP mouse after 30 mins by rotary drum test
# Assay type: functional
# condition_summary: 0.5 h
Use mg/kg as the unit, but write only the number.

{"chemical_structure": "Br.O=c1c2ccccc2nc(CSC2=NCCN2)n1-c1ccccc1F", "ED50, mg/kg": 32}
{"chemical_structure": "Cc1ccccc1-n1c(CSS(=O)(=O)O)nc2ccccc2c1=O", "ED50, mg/kg": 44}
{"chemical_structure": "Cc1ccccc1-n1c(CSC(N)=O)nc2ccccc2c1=O", "ED50, mg/kg": 200}
{"chemical_structure": "Br.C/N=C(/NC)SCc1nc2ccccc2c(=O)n1-c1ccccc1Cl", "ED50, mg/kg": 27}
{"chemical_structure": "Br.N=C(N)SCc1nc2ccccc2c(=O)n1-c1ccccc1F", "ED50, mg/kg": 43}

With those in mind, consider the next compound.
Item under review: Cc1ccccc1-n1c(CF)nc2ccccc2c1=O.Cl . Reported ED50?
18

Reference source: ChEMBL document CHEMBL3244418
